- experiment: Mean residence time (0 to infinity) in mouse at 1 mg/kg, iv measured upto 24 hrs by LC-MS/MS analysis
- Type: ADME, organism-based
- condition context: in vivo
observed property: MRT inf (min)
Write down the numeric answer in min and omit the unit.

Query: Please look up its MRT inf: "O=C(O)CNC(=O)c1ncc(C2CCN(C(=O)CNc3ccc(Cl)cc3)CC2)cc1O"
Result: 31.8

====

- experiment: Metabolic stability in rat liver microsomes assessed as clearance at 1 uM preincubated for 5 mins followed by NADPH addition and measured upto 60 mins by LC-MS/MS analysis
- Format: ADME, Microsome
- condition context: time < 65 min, read-out: CLH
observed property: log10(microsomal CLint at 1 µM) (log10 of the value in µL/min/mg)
Friendly reminder: values = log10 of microsomal CLint at 1 µM, unit µL/min/mg.

// below: answered compounds
input smiles	log10(microsomal CLint at 1 µM)
O=C(O)CNC(=O)c1ncc(C2=CCN(S(=O)(=O)Cc3ccc(C(F)(F)F)cc3)CC2)cc1O	2.13
O=C(O)CNC(=O)c1ncc(C2CCN(C(=O)c3ccc(C(F)(F)F)cc3)CC2)cc1O	0.57
O=C(O)CNC(=O)c1ncc(C2CCN(S(=O)(=O)Cc3ccc(C(F)(F)F)cc3)CC2)cc1O	0.70

Query: Dear colleague, I am looking for the recorded log10(microsomal CLint at 1 µM) of the following compound: "O=C(O)CNC(=O)c1ncc(C2CCN(C(=O)CNc3ccc(Cl)cc3)CC2)cc1O"
Result: 0.58

Query: And for "O=C(O)CNC(=O)c1ncc(C2CCN(C(=O)CNc3ccc(C(F)(F)F)cc3)CC2)cc1O" ?
Result: 0.75

====

- experiment: Tmax in mouse at 10 mg/kg, po measured upto 24 hrs by LC-MS/MS analysis
- Format: ADME, organism-based
- condition context: in vivo
observed property: Tmax (min)
All answers are understood in min, so give the number only.

Query: What Tmax value was documented for this compound, "O=C(O)CNC(=O)c1ncc(C2CCN(C(=O)CNc3ccc(Cl)cc3)CC2)cc1O" ?
Result: 30

====

- experiment: Mean residence time (0 to infinity) in Sprague-Dawley rat at 1 mg/kg, iv measured upto 24 hrs by LC-MS/MS analysis
- Format: ADME, organism-based
- condition context: in vivo
observed property: MRT inf (h)
# number only, unit h dropped from output

Query: Requested field: MRT inf. Item: "O=C(O)CNC(=O)c1ncc(C2CCN(C(=O)CNc3ccc(Cl)cc3)CC2)cc1O"
Result: 1.54

====

- experiment: Apparent volume of distribution in mouse at 1 mg/kg, iv measured upto 24 hrs by LC-MS/MS analysis
- Type: ADME, organism-based
- condition context: in vivo, read-out: Vz
observed property: Vd (L/kg)
Kindly answer with a numeric value in L/kg, unit omitted.

Query: Vd; subject: "O=C(O)CNC(=O)c1ncc(C2CCN(C(=O)CNc3ccc(Cl)cc3)CC2)cc1O"
Result: 0.345

====

- experiment: AUC(0 to t) in mouse at 1 mg/kg, iv measured upto 24 hrs by LC-MS/MS analysis
- Assay type: ADME, organism-based
- Parameters: time < 24 hrs, dose 1 mg/kg, route iv
- condition context: in vivo
observed property: AUC(0-t) at 24 h (ng·h/mL)
Write it as a number; the unit ng·h/mL goes unstated.

Query: Look at this molecule and give its reported AUC(0-t) at 24 h. "O=C(O)CNC(=O)c1ncc(C2CCN(C(=O)CNc3ccc(Cl)cc3)CC2)cc1O"
Result: 1380

====

Lab note: log10 of IC50 readings collected with UniProt:Q9GZT9 for the following compounds.
Field: value | Transform: log10 | Quantity: IC50 | Unit: nM

Answered examples (4):
input smiles	experimental target	log10 of IC50
COc1ccc(C(=O)N2CCC(c3cnc(C(=O)NCC(=O)O)c(O)c3)CC2)cc1	UniProt:Q9GZT9	1.73
O=C(O)CNC(=O)c1ncc(C2CCN(C(=O)c3cccc(F)c3)CC2)cc1O	UniProt:Q9GZT9	1.89
O=C(O)CNC(=O)c1ncc(C2CCN(C(=O)CNc3ccc(Cl)cc3)CC2)cc1O	UniProt:Q9GZT9	1.35
O=C(O)CNC(=O)c1ncc(C2CCN(C(=O)c3ccc(F)cc3)CC2)cc1O	UniProt:Q9GZT9	1.83

Query: Give the measured log10 of IC50 of "O=C(O)CNC(=O)c1ncc(C2CCN(C(=O)c3cccc(Cl)c3)CC2)cc1O" .
Result: 2.29

Query: Moving on to "O=C(O)CNC(=O)c1ncc(C#CCOc2ccc(Cl)cc2)cc1O"
Result: 1.19

Query: Now the compound "O=C(O)CNC(=O)c1ncc(C2CCN(C(=O)CNc3ccc(OC(F)(F)F)cc3)CC2)cc1O"
Result: 1.60

Query: Entry "O=C(O)CNC(=O)c1ncc(C2=CCN(S(=O)(=O)Cc3ccc(C(F)(F)F)cc3)CC2)cc1O" please
Result: 1.12

Query: Request: "O=C(O)CNC(=O)c1ncc(C2CCN(C(=O)c3cccs3)CC2)cc1O"
Result: 1.76

====

- experiment: Cmax in mouse at 10 mg/kg, po measured upto 24 hrs by LC-MS/MS analysis
- Format: ADME, organism-based
- Set-up: time < 24 hrs, dose 10 mg/kg, route po
- condition context: in vivo
observed property: Cmax (ng/mL)
Respond numerically; units are ng/mL and should not be typed.

Query: State the recorded Cmax for this entry: "O=C(O)CNC(=O)c1ncc(C2CCN(C(=O)CNc3ccc(Cl)cc3)CC2)cc1O"
Result: 3040

====

- experiment: Cmax in Sprague-Dawley rat at 10 mg/kg, po measured upto 24 hrs by LC-MS/MS analysis
- Assay type: ADME, organism-based
- Set-up: time < 24 hrs, dose 10 mg/kg, route po
- condition context: in vivo
observed property: Cmax (ng/mL)
Field format: number, assumed ng/mL, no unit text.

Query: Could you tell me which Cmax is on file for "O=C(O)CNC(=O)c1ncc(C2CCN(C(=O)CNc3ccc(Cl)cc3)CC2)cc1O" ?
Result: 26100

====

- experiment: AUC(0 to infinity) in Sprague-Dawley rat at 10 mg/kg, po measured upto 24 hrs by LC-MS/MS analysis
- Assay type: ADME, organism-based
- Set-up: dose 10 mg/kg, time < 24 hrs, route po
- condition context: in vivo
observed property: AUC(0-inf) (ng·h/mL)
Express the result in ng·h/mL but write the number alone.

Query: Could you tell me which AUC(0-inf) is on file for "O=C(O)CNC(=O)c1ncc(C2CCN(C(=O)CNc3ccc(Cl)cc3)CC2)cc1O" ?
Result: 7140

====

- experiment: Mean residence time (0 to infinity) in Sprague-Dawley rat at 10 mg/kg, po measured upto 24 hrs by LC-MS/MS analysis
- Assay type: ADME, organism-based
- condition context: in vivo
observed property: MRT inf (min)
Give the value in min but do not write min after it.

Query: Quick check: MRT inf of "O=C(O)CNC(=O)c1ncc(C2CCN(C(=O)CNc3ccc(Cl)cc3)CC2)cc1O" ?
Result: 33.6

====

- experiment: Mean residence time (0 to infinity) in mouse at 10 mg/kg, po measured upto 24 hrs by LC-MS/MS analysis
- Assay type: ADME, organism-based
- condition context: in vivo
observed property: MRT inf (h)
Reply numerically in h, unit not repeated.

Query: Which MRT inf is reported for this compound? "O=C(O)CNC(=O)c1ncc(C2CCN(C(=O)CNc3ccc(Cl)cc3)CC2)cc1O"
Result: 1.67

====

- experiment: Oral bioavailability in mouse at 10 mg/kg measured upto 24 hrs by LC-MS/MS analysis
- Type: ADME, organism-based
- condition context: in vivo
observed property: bioavailability

Query: Name the recorded bioavailability for "O=C(O)CNC(=O)c1ncc(C2CCN(C(=O)CNc3ccc(Cl)cc3)CC2)cc1O" .
Result: 35.3%

====

- experimental target: Egl nine homolog 1 (Homo sapiens, UniProt Q9GZT9)
- Sequence (Q9GZT9 whole entry): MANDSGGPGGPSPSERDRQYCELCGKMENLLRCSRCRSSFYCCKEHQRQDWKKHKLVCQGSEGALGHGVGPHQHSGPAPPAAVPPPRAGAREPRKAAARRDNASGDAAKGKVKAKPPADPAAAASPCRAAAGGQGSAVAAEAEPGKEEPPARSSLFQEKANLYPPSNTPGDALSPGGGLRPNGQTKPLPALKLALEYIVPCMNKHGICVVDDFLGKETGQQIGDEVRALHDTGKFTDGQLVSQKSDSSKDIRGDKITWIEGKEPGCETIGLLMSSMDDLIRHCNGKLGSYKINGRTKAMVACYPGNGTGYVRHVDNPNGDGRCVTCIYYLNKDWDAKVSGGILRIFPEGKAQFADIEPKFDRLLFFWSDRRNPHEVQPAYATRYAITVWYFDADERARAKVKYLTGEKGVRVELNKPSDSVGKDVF
Parameter: pIC50. Scope: all listed entries.
Schema: pIC50 number; meaning minus log10 of the concentration expressed in molar units.

As a guide, the following entries are already answered.
input smiles	pIC50
O=C(O)CNC(=O)c1ncc(C2CCN(C(=O)CNc3ccccc3)CC2)cc1O	7.25
O=C(O)CNC(=O)c1ncc(C2CCN(C(=O)c3ccc(Cl)cc3)CC2)cc1O	7.46
O=C(O)CNC(=O)c1ncc(C2CCN(C(=O)CNc3ccc(C(F)(F)F)cc3)CC2)cc1O	7.36

Consider now this further molecule.
Query: Give the measured pIC50 of "O=C(O)CNC(=O)c1ncc(C2CCN(C(=O)c3ccc(Cl)cc3Cl)CC2)cc1O" .
Result: 6.84
